# ASSAY NAME: LM-1 macrophage cytotoxicity (Alamar Blue)
# Format: cell-based, murine

>  <COMPOUND>
C#CCCCCC(=O)N[C@H](C(=O)N[C@H](C(=O)N[C@H](C(=O)N[C@H]1CCN([C@H](Cc2ccccc2)C(=O)NCCCCCCN)C1=O)C(C)C)C(C)C)C(C)C [R-32]

>  <UNIT ANNOTATION>
µM

>  <CC50>
338

$$$$

====

# Tested on: L. infantum (MHOM/MA/67/ITMAP-263) wild-type strain (WT) promastigotes
# Type: cell-based, Leishmania infantum
# ASSAY SETUP: SI = CC50 (LM-1 macrophage)/EC50 Ldi WT
Where a SMILES comes first, the peptide text is derived from it. [ ]: non-standard residue; d: D form. The star is where a group is joined. NMeF = CN[C@@H](Cc1ccccc1)C(=O)O; NMeV = CN[C@H](C(=O)O)C(C)C; Hept6ynoyl = C#CCCCCC(=O)*; NMeA = CN[C@@H](C)C(=O)O; NH(CH2)6NH2 = NCCCCCCN*
ASSAY READOUT: Selectivity Index

>  <COMPOUND>
C#CCCCCC(=O)N(C)[C@H]1CCN([C@H](C(=O)N(C)[C@H](C(=O)N(C)[C@@H](C)C(=O)N(C)[C@@H](Cc2ccccc2)C(=O)O)C(C)C)C(C)C)C1=O [peptide 26]

>  <ASSAY READOUT>
Selectivity Index

>  <MEASURED>
1.46

$$$$
>  <COMPOUND>
C#CCCCCC(=O)N(C)[C@H](C(=O)N(C)[C@H](C(=O)N(C)[C@H]1CCN([C@@H](C)C(=O)N(C)[C@@H](Cc2ccccc2)C(=O)O)C1=O)C(C)C)C(C)C [peptide 28]

>  <ASSAY READOUT>
Selectivity Index

>  <MEASURED>
0.9

$$$$
>  <COMPOUND>
C#CCCCCC(=O)N(C)[C@H](C(=O)N[C@H](C(=O)N[C@H](C(=O)N[C@@H](C)C(=O)N[C@@H](Cc1ccccc1)C(=O)NCCCCCCN)C(C)C)C(C)C)C(C)C [peptide 18] (Hept6ynoyl-[NMeV]VVAF-{NH(CH2)6NH2})

>  <ASSAY READOUT>
Selectivity Index

>  <MEASURED>
4.8

$$$$
>  <COMPOUND>
C#CCCCCC(=O)N(C)[C@H](C(=O)N(C)[C@H]1CCN([C@H](C(=O)N(C)[C@@H](C)C(=O)N(C)[C@@H](Cc2ccccc2)C(=O)O)C(C)C)C1=O)C(C)C [peptide 27]

>  <ASSAY READOUT>
Selectivity Index

>  <MEASURED>
1.0

$$$$
>  <COMPOUND>
C#CCCCCC(=O)N[C@H](C(=O)N[C@H](C(=O)N[C@H](C(=O)N[C@@H](C)C(=O)N(C)[C@@H](Cc1ccccc1)C(=O)NCCCCCCN)C(C)C)C(C)C)C(C)C [peptide 22] (Hept6ynoyl-VVVA[NMeF]-{NH(CH2)6NH2})

>  <ASSAY READOUT>
Selectivity Index

>  <MEASURED>
15.3

$$$$
>  <COMPOUND>
C#CCCCCC(=O)N[C@H](C(=O)N[C@H](C(=O)N[C@H](C(=O)N[C@H]1CCN([C@@H](Cc2ccccc2)C(=O)NCCCCCCN)C1=O)C(C)C)C(C)C)C(C)C [peptide 32]

>  <ASSAY READOUT>
Selectivity Index

>  <MEASURED>
4.3

$$$$
>  <COMPOUND>
C#CCCCCC(=O)N(C)[C@H](C(=O)N(C)[C@H](C(=O)N(C)[C@H](C(=O)N(C)[C@@H](C)C(=O)N(C)[C@@H](Cc1ccccc1)C(=O)O)C(C)C)C(C)C)C(C)C [peptide 12] (Hept6ynoyl-[NMeV][NMeV][NMeV][NMeA][NMeF]-OH)

>  <ASSAY READOUT>
Selectivity Index

>  <MEASURED>
4.1

$$$$
>  <COMPOUND>
C#CCCCCC(=O)N[C@H]1CCN([C@H](C(=O)N[C@H](C(=O)N[C@@H](C)C(=O)N[C@@H](Cc2ccccc2)C(=O)NCCCCCCN)C(C)C)C(C)C)C1=O [peptide 29]

>  <ASSAY READOUT>
Selectivity Index

>  <MEASURED>
5.5

$$$$
>  <COMPOUND>
C#CCCCCC(=O)N[C@H](C(=O)N[C@H](C(=O)N(C)[C@H](C(=O)N[C@@H](C)C(=O)N[C@@H](Cc1ccccc1)C(=O)NCCCCCCN)C(C)C)C(C)C)C(C)C [peptide 20] (Hept6ynoyl-VV[NMeV]AF-{NH(CH2)6NH2})

>  <ASSAY READOUT>
Selectivity Index

>  <MEASURED>
5.2

$$$$
>  <COMPOUND>
C#CCCCCC(=O)N(C)[C@H]1CCN([C@H](C(=O)N(C)[C@H](C(=O)N(C)[C@@H](C)C(=O)N(C)[C@@H](Cc2ccccc2)C(=O)NCCCCCCN)C(C)C)C(C)C)C1=O [peptide 33]

>  <ASSAY READOUT>
Selectivity Index

>  <MEASURED>
3.4

$$$$
>  <COMPOUND>
C#CCCCCC(=O)N(C)[C@H](C(=O)N(C)[C@H](C(=O)N(C)[C@H]1CCN([C@@H](C)C(=O)N(C)[C@@H](Cc2ccccc2)C(=O)NCCCCCCN)C1=O)C(C)C)C(C)C [peptide 35]

>  <ASSAY READOUT>
Selectivity Index

>  <MEASURED>
4.7

$$$$
>  <COMPOUND>
C#CCCCCC(=O)N(C)[C@H](C(=O)N(C)[C@H](C(=O)N(C)[C@H](C(=O)N(C)[C@@H](C)C(=O)N(C)[C@@H](Cc1ccccc1)C(=O)NCCCCCCN)C(C)C)C(C)C)C(C)C [peptide 17] (Hept6ynoyl-[NMeV][NMeV][NMeV][NMeA][NMeF]-{NH(CH2)6NH2})

>  <ASSAY READOUT>
Selectivity Index

>  <MEASURED>
6.9

$$$$
>  <COMPOUND>
C#CCCCCC(=O)N(C)[C@H](C(=O)N(C)[C@H]1CCN([C@H](C(=O)N(C)[C@@H](C)C(=O)N(C)[C@@H](Cc2ccccc2)C(=O)NCCCCCCN)C(C)C)C1=O)C(C)C [peptide 34]

>  <ASSAY READOUT>
Selectivity Index

>  <MEASURED>
12.0

$$$$
>  <COMPOUND>
C#CCCCCC(=O)N[C@H](C(=O)N[C@H](C(=O)N[C@H]1CCN([C@@H](C)C(=O)N[C@@H](Cc2ccccc2)C(=O)NCCCCCCN)C1=O)C(C)C)C(C)C [peptide 31]

>  <ASSAY READOUT>
Selectivity Index

>  <MEASURED>
6.0

$$$$
>  <COMPOUND>
C#CCCCCC(=O)N[C@H](C(=O)N[C@H]1CCN([C@H](C(=O)N[C@@H](C)C(=O)N[C@@H](Cc2ccccc2)C(=O)NCCCCCCN)C(C)C)C1=O)C(C)C [peptide 30]

>  <ASSAY READOUT>
Selectivity Index

>  <MEASURED>
8.6

$$$$
>  <COMPOUND>
C#CCCCCC(=O)N[C@H](C(=O)N[C@H](C(=O)N[C@H](C(=O)N[C@@H](C)C(=O)N[C@@H](Cc1ccccc1)C(=O)O)C(C)C)C(C)C)C(C)C [peptide 15, HCC(CH2)4CO-Val-Val-Val-Ala-Phe-OH] (Hept6ynoyl-VVVAF-OH)

>  <ASSAY READOUT>
Selectivity Index

>  <MEASURED>
7.0

$$$$
>  <COMPOUND>
C#CCCCCC(=O)N[C@H](C(=O)N[C@H]1CCN([C@H](C(=O)N[C@@H](C)C(=O)N[C@@H](Cc2ccccc2)C(=O)O)C(C)C)C1=O)C(C)C [peptide 24, HCC(CH2)4CO-Val-Agl-Val-Ala-Phe-OH]

>  <ASSAY READOUT>
Selectivity Index

>  <MEASURED>
1.6

$$$$
>  <COMPOUND>
C#CCCCCC(=O)N[C@H](C(=O)N(C)[C@H](C(=O)N[C@H](C(=O)N[C@@H](C)C(=O)N[C@@H](Cc1ccccc1)C(=O)NCCCCCCN)C(C)C)C(C)C)C(C)C [compound 19] (Hept6ynoyl-V[NMeV]VAF-{NH(CH2)6NH2})

>  <ASSAY READOUT>
Selectivity Index

>  <MEASURED>
3.9

$$$$
>  <COMPOUND>
C#CCCCCC(=O)N[C@H](C(=O)N[C@H](C(=O)N[C@H](C(=O)N[C@H]1CCN([C@H](Cc2ccccc2)C(=O)NCCCCCCN)C1=O)C(C)C)C(C)C)C(C)C

>  <ASSAY READOUT>
Selectivity Index

>  <MEASURED>
3.6

$$$$
>  <COMPOUND>
C#CCCCCC(=O)N[C@H]1CCN([C@H](C(=O)N[C@H](C(=O)N[C@@H](C)C(=O)N[C@@H](Cc2ccccc2)C(=O)O)C(C)C)C(C)C)C1=O [peptide 23, HCC(CH2)4CO-Agl-Val-Val-Ala-Phe-OH]

>  <ASSAY READOUT>
Selectivity Index

>  <MEASURED>
1.61

$$$$
